biological target: T1, Human PD-1 expressed on CHO-K1 cells (CHO-K1/hPD-1) (human, UniProt Q15116 25-288); assay: FACS, CHO-K1/hPD-1 cells
T1 construct: whole, on cells; also called CHO-K1 cells overexpressing human PD-1
T1 sequence (Q15116 25-288): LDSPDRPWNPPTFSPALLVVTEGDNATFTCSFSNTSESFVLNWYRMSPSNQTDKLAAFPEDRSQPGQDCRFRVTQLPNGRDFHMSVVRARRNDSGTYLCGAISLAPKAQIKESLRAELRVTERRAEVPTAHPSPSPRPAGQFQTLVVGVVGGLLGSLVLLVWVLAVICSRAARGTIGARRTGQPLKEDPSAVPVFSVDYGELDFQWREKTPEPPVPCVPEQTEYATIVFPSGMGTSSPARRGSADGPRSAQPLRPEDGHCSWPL
Metric: pEC50
Remember, pEC50 is on a log scale: it is -log10 of the molar concentration.

PR005090 (VHH, Monovalent single-domain (VH) antibody with Flag-6His tag) VHH: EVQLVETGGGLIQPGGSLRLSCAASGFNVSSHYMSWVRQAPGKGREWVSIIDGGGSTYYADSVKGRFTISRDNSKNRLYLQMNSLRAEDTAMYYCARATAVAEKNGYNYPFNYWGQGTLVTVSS :: 7.31
PR005100 (VHH, Monovalent single-domain (VH) variant of PR002481 with Flag-6His tag) VHH: EVQLVETGGGLIQPGGSLRLSCAASGFNVSSHYMSWVRQAPGKGREWVSIIDRGGSKYYADSVKGRFTISRDNSKNRLYLQMNSLRAEDTAMYYCARATAVAEKNGYNYPFNYWGQGTLVTVSS :: 7.72
PR005103 (VHH, Monovalent single-domain (VH) variant of PR002481 with Flag-6His tag) VHH: EVQLVETGGGLIQPGGSLRLSCAASGFNVSSHYMSWVRQAPGKGREWVSIIDRGGGTYYADSVKGRFTISRDNSKNRLYLQMNSLRAEDTAMYYCARATAVAEKNGYNYPFNYWGQGTLVTVSS :: 7.84
PR005099 (VHH, Monovalent single-domain (VH) variant of PR002481 with Flag-6His tag) VHH: EVQLVETGGGLIQPGGSLRLSCAASGFNVSSHYMSWVRQAPGKGREWVSIIDSAGSTYYADSVKGRFTISRDNSKNRLYLQMNSLRAEDTAMYYCARATAVAEKNGYNYPFNYWGQGTLVTVSS :: 7.81
PR005093 (VHH, Monovalent single-domain (VH) variant of PR002481 with Flag-6His tag) VHH: EVQLVETGGGLIQPGGSLRLSCAASGFNVSSHYMSWVRQAPGKGREWVSIIDGGGSTYYADSVKGRFTISRDNSKNRLYLQMNSLRAEDTAMYYCARATRVREANGYNYPFNYWGQGTLVTVSS :: 7.98

Form field pEC50, entry PR005104 (VHH, Monovalent single-domain (VH) variant of PR002481 with Flag-6His tag) VHH: EVQLVETGGGLIQPGGSLRLSCAASGFNVSSHYMSWVRQAPGKGREWVSIIDISGSTYYADSVKGRFTISRDNSKNRLYLQMNSLRAEDTAMYYCARATAVAEKNGYNYPFNYWGQGTLVTVSS : 7.93

Form field pEC50, entry PR005102 (VHH, Monovalent single-domain (VH) variant of PR002481 with Flag-6His tag) VHH: EVQLVETGGGLIQPGGSLRLSCAASGFNVSSHYMSWVRQAPGKGREWVSIIDRGGSTYYADSVKGRFTISRDNSKNRLYLQMNSLRAEDTAMYYCARATAVAEKNGYNYPFNYWGQGTLVTVSS : 7.91

Form field pEC50, entry PR005096 (VHH, Monovalent single-domain (VH) variant of PR002481 with Flag-6His tag) VHH: EVQLVETGGGLIQPGGSLRLSCAASGFNVSSHYMSWVRQAPGKGREWVSIIDGGGSTYYADSVKGRFTISRDNSKNRLYLQMNSLRAEDTAMYYCARATRVPEKGGYNYPFNYWGQGTLVTVSS : 7.56

Form field pEC50, entry PR005101 (VHH, Monovalent single-domain (VH) variant of PR002481 with Flag-6His tag) VHH: EVQLVETGGGLIQPGGSLRLSCAASGFNVSSHYMSWVRQAPGKGREWVSIIDKGGGTYYADSVKGRFTISRDNSKNRLYLQMNSLRAEDTAMYYCARATAVAEKNGYNYPFNYWGQGTLVTVSS : 7.66
